- EXPERIMENTAL DETAILS: osmotic lysis modulators in infected erythrocytes, primary screen, PSAC antagonist project, cell-based, P. falciparum Indochina, OD700, 3 h (AID 1156)
- SETUP CONDITIONS: higher = more signal, called active from +8 up or from −8 down
Each entry below carries its reported z-score.
READOUT: z-score

COMPOUND	RECORDED VALUE
CCCCc1nc2c(c3c1C[C@H](C)OC3)CN(CCC(C)C)CC2	0.816
CCOC(=O)CCN1C(=O)[C@H]2[C@H]3[C@H](O)C=CC(=O)[C@@H]3CC[C@H]2C1=O	-0.233
CC(CCN1CCCCc2nc(C)c(C)cc21)=NOC(C)CN1CCCc2nc(C)c(C)cc21 (stereo not drawn)	-0.19
